- Experimental Protocol: Cmax in Sprague-Dawley rat at 23 mg/kg, po administered via gavage by LC-MS/MS analysis
- Format: ADME, organism-based
- Design: dose 23 mg/kg, route po
- Study Conditions: in vivo
Experimental Readout: Cmax

Look at this compound and give its reported Cmax. CN1Cc2c(Cl)cc(Cl)cc2C(c2ccc(S(=O)(=O)NCCOCCOCCNC(=O)c3ccc(C(=O)NCCOCCOCCNS(=O)(=O)c4ccc(C5CN(C)Cc6c(Cl)cc(Cl)cc65)cc4)cc3)cc2)C1 (racemic)
< 3 ng/mL

----------
- Experimental Protocol: Cmax in Sprague-Dawley rat at 28 mg/kg, po administered via gavage by LC-MS/MS analysis
- Format: ADME, organism-based
- Design: dose 28 mg/kg, route po
- Study Conditions: in vivo
Experimental Readout: Cmax

Quick check: Cmax of CN1Cc2c(Cl)cc(Cl)cc2C(c2cccc(S(=O)(=O)NCCOCCOCCOCCNC(=O)CCC(=O)NCCOCCOCCOCCNS(=O)(=O)c3cccc(C4CN(C)Cc5c(Cl)cc(Cl)cc54)c3)c2)C1 (racemic) ?
< 2 ng/mL

----------
- Experimental Protocol: Cmax in Sprague-Dawley rat at 1.5 mg/kg, po administered via gavage by LC-MS/MS analysis
- Format: ADME, organism-based
- Set-up: dose 1.5 mg/kg, route po
- Study Conditions: in vivo
Experimental Readout: Cmax (ng/mL)
A number alone suffices; assume ng/mL.

Look up Cmax: CN1Cc2c(Cl)cc(Cl)cc2[C@H](c2cccc(NC(=O)[C@H](O)[C@@H](O)[C@H](O)[C@H](O)CO)c2)C1
6

----------
- Experimental Protocol: Cmax in Sprague-Dawley rat at 22 mg/kg, po administered via gavage by LC-MS/MS analysis
- Format: ADME, organism-based
- Parameters: dose 22 mg/kg, route po
- Study Conditions: in vivo
Experimental Readout: Cmax

Look at this molecule and give its reported Cmax. CN1Cc2c(Cl)cc(Cl)cc2C(c2cccc(S(=O)(=O)NCCOCCOCCNC(=O)c3ccc(C(=O)NCCOCCOCCNS(=O)(=O)c4cccc(C5CN(C)Cc6c(Cl)cc(Cl)cc65)c4)cc3)c2)C1 (racemic)
< 2 ng/mL

----------
- Experimental Protocol: In vivo inhibition of NEH3 in Sprague-Dawley rat assessed as sodium excretion in urine at 3 mg/kg, po administered via gavage measured after 16 hrs by ion chromatography relative to control
- Set-up: scale not given: the % may be the effect or the level left
Experimental Readout: Activity (%)
A number alone suffices; assume %.

Known results for compounds:
CN1Cc2c(Cl)cc(Cl)cc2C(c2cccc(S(=O)(=O)NCCOCCOCCOCCNC(=O)NCCOCCOCCOCCNS(=O)(=O)c3cccc(C4CN(C)Cc5c(Cl)cc(Cl)cc54)c3)c2)C1 (racemic)    87
CN1Cc2c(Cl)cc(Cl)cc2C(c2cccc(S(=O)(=O)NCCOCCOCCOCCNC(=O)Nc3ccc(NC(=O)NCCOCCOCCOCCNS(=O)(=O)c4cccc(C5CN(C)Cc6c(Cl)cc(Cl)cc65)c4)cc3)c2)C1 (racemic)    42
CN1Cc2c(Cl)cc(Cl)cc2C(c2cccc(S(=O)(=O)NCCOCCOCCNC(=O)NCCCCNC(=O)NCCOCCOCCNS(=O)(=O)c3cccc(C4CN(C)Cc5c(Cl)cc(Cl)cc54)c3)c2)C1 (racemic)    22

Reported Activity, compound CN1Cc2c(Cl)cc(Cl)cc2C(c2cccc(S(=O)(=O)NCCOCCOCCOCCNC(=O)CCC(=O)NCCOCCOCCOCCNS(=O)(=O)c3cccc(C4CN(C)Cc5c(Cl)cc(Cl)cc54)c3)c2)C1 (racemic) : ____
56

So what's the measured Activity for this one? CN1Cc2c(Cl)cc(Cl)cc2C(c2cccc(S(=O)(=O)NCCOCCOCCNC(=O)c3ccc(C(=O)NCCOCCOCCNS(=O)(=O)c4cccc(C5CN(C)Cc6c(Cl)cc(Cl)cc65)c4)cc3)c2)C1 (racemic)
24

Provenance of the data: ChEMBL document CHEMBL5143744
